- Tested on: tumour
- procedure summary: Dosimetry with regard to the tumour (MIRD programme, extrapolated to ^131I)
- assay setup: extrapolated to 131I labelling
Counter-ions that a name gives are not always drawn.
Some compounds, each annotated with its measured Effective period.
Please provide the amount together with its unit, number first.

1) CCN(CC)CCNC(=O)c1ccc2cc(I)ccc2c1 [compound 3, hydrochloride] = 21.4 h
2) CCCN(CCC)CCCCNC(=O)c1ccc2cc(I)ccc2n1 [compound 49, dihydrochloride] = 51.2 h
3) CCN(CC)CCNC(=O)c1cccc2c(Nc3ccc(NS(C)(=O)=O)cc3OC)c3cc(I)ccc3nc12 [compound 129, dihydrochloride] = 88.3 h
4) CCN(CC)CCNC(=O)c1cccc2cc3cccc(I)c3nc12 [compound 102, dihydrochloride] = 35.4 h
5) CCN(CC)CCNC(=O)c1c[nH]c2ccc(I)cc2c1=O [compound 35, dihydrochloride] = 49.4 h
6) CCN(CC)CCNC(=O)c1nc2ccc(I)cc2[nH]1.Cl.Cl = 35.1 h
7) CCN(CC)CCNC(=O)c1cc2cc(I)ccc2[nH]1 [compound 10, hydrochloride] = 18.2 h

We now examine a further compound.
Query: Recorded Effective period of CCN(CC)CCNC(=O)c1ccc2cc(I)ccc2n1.Cl.Cl , please.
Response: 31.8 h
